Every entry's value here was drawn from paper PMC11820618.

TARGET UNDER TEST: rat TRPA1 (Rattus norvegicus)
Sequence (Q6RI86 whole entry): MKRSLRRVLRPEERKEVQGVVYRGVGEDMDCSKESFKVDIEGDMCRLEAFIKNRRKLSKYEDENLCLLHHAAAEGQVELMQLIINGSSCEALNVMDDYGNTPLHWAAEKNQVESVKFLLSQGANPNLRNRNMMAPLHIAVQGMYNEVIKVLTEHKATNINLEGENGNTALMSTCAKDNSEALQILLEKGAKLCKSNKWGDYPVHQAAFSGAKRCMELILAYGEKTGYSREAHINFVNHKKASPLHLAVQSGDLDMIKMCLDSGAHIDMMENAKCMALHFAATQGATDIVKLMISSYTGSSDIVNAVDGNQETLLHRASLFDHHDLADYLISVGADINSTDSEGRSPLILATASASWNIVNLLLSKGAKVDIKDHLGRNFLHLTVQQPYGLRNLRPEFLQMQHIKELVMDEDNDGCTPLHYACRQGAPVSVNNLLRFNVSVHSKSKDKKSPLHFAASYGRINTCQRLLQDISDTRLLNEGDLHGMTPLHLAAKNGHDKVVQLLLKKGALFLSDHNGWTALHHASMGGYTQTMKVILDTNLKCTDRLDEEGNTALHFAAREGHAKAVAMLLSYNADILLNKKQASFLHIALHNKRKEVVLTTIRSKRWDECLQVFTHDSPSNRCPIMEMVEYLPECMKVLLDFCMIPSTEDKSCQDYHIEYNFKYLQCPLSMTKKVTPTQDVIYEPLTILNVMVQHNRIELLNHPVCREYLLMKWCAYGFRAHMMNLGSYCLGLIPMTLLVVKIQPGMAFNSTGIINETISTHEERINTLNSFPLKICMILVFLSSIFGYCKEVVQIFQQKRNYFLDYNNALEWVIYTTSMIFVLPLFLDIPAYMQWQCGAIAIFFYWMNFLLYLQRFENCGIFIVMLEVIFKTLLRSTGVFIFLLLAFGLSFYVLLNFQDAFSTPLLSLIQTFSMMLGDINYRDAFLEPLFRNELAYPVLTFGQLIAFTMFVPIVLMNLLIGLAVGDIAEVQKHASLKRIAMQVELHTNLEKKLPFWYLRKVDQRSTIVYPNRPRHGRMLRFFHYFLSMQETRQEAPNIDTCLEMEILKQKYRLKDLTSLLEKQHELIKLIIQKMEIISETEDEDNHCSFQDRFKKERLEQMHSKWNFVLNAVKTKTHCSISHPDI
METHOD SUMMARY: cell-based
// reported EC50 for each item listed
RESULT TYPE: EC50 (µM)

* COc1ccc(CNC(=O)c2cc3ccccc3n2C)cc1 [6e] | 20.3
* Cn1c(C(=O)Nc2ccc(F)cc2)cc2ccccc21 [6b] | 2
* O=C(NCc1ccc(F)cc1)c1cc2ccccc2[nH]1 [5e] | 23.7
* Cn1c(C(=O)NCc2ccc(F)c(F)c2)cc2ccccc21 [6i] | 10.9
* O=C(NCc1ccc(F)c(F)c1)c1cc2ccccc2[nH]1 [5h] | 19.1
* Cn1c(C(=O)Nc2ccc(O)cc2)cc2ccccc21 [6a] | 22.7
* Cn1c(C(=O)NCc2ccc(F)cc2)cc2ccccc21 [6f] | 20.4
